pIC50 listing for selected compounds.
Target: Broad substrate specificity ATP-binding cassette transporter ABCG2 (Homo sapiens)
Sequence (Q9UNQ0 whole entry): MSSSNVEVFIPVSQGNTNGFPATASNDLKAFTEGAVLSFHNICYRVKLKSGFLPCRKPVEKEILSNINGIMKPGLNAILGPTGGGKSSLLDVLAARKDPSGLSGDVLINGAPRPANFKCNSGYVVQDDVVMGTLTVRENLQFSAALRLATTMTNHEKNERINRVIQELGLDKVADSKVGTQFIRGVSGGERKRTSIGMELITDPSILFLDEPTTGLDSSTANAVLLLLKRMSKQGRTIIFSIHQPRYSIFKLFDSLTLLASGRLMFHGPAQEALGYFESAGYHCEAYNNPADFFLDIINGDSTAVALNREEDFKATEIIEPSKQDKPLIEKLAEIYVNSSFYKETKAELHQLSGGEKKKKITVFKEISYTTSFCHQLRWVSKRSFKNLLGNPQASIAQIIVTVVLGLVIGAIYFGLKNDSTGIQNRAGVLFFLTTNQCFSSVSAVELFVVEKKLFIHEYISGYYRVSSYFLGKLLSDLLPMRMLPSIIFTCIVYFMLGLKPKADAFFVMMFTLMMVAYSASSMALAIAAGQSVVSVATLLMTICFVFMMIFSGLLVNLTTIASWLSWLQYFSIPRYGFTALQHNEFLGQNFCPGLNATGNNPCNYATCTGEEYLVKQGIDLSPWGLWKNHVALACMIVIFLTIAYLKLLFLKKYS
Assay: Inhibition of BCRP (unknown origin) expressed in dog MDCK-II cells using pheophorbide A as substrate preincubated for 20 mins followed by substrate addition and measured after 120 mins by flow cytometry analysis
Assay type: cell-based
// pIC50 here means minus log10 of the molar concentration (mol/L)

Would you please look over these solved cases?
* c1ccc2c(c1)[nH]c1c(N3CCN(Cc4ccc5c(c4)OCO5)CC3)ncnc12 | 5.10
* N#Cc1c2n(c3c(N4CCN(c5ccccn5)CC4)ncnc13)CCCC2 | 5.31

We now examine a further compound.
For this compound ( `c1ccc(CCN2CCN(c3ncnc4c3[nH]c3ccccc34)CC2)nc1` ), measured pIC50 is 4.94
